These measurements were taken from patent EP4796538A1.

molecular target: RET-CCDC6 (PTC1) (Homo sapiens, UniProt P07949); construct: purchased Reaction Biology Corp; test: Kinase panel inhibition, radiolabeled [γ-33P] ATP (Reaction Biology Corp); assay type: biochemical; details: compound at 10 uM; ATP 1 µM; Data 1; read-out: % Enzyme Activity (relative to DMSO controls) RET-CCDC6 (PTC1) Data 1
Sequence (P07949 whole entry, looked up): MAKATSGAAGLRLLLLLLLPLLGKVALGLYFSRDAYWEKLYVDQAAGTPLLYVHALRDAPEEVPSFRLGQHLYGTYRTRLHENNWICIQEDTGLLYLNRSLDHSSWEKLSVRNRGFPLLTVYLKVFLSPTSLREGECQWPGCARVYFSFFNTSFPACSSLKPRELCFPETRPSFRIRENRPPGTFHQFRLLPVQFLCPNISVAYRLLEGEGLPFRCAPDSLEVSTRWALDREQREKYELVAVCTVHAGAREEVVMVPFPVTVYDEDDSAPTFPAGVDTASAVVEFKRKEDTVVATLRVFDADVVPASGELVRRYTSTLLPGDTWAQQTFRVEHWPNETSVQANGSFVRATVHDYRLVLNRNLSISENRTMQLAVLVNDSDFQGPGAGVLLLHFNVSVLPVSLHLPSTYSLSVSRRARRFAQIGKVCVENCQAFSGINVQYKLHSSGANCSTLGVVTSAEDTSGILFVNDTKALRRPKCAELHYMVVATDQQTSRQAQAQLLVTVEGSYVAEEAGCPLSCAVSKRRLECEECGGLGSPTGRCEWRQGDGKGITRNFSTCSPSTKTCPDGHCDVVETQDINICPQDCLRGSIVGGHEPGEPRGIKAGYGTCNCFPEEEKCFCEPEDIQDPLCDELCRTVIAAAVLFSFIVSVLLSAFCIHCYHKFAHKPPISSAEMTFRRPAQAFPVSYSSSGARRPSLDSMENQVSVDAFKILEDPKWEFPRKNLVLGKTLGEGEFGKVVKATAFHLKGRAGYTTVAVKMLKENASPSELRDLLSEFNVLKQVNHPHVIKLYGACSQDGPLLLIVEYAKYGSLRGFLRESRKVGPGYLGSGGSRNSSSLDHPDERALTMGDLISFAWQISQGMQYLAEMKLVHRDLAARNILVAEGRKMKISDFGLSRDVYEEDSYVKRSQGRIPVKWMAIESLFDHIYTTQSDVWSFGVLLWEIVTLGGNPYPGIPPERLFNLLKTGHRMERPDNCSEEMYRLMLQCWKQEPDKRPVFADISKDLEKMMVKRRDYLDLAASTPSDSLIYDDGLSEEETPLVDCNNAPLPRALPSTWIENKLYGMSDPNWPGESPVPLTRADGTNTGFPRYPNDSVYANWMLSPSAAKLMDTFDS
PROPERTY: remaining activity at 10 µM (%)
Provide the reading as a plain figure in %.

Worked cases, answers included:
- COMPOUND STRUCTURE STRING: "CC(C)Nc1cc(-c2ccc(N3CC(Oc4cccc(F)c4)C3)nc2)c2nccnc2c1"
  UNIT OF MEASURE: "%"
  remaining activity at 10 µM: 1.34
- COMPOUND STRUCTURE STRING: "O=C(Nc1cc(-c2ccc(N3CC[C@H](NC(=O)c4ccccc4F)C3)nc2)c2nccnc2c1)c1ccco1"
  UNIT OF MEASURE: "%"
  remaining activity at 10 µM: 1.15
- COMPOUND STRUCTURE STRING: "CCCCNc1cc(-c2ccc(N3CC[C@H](NC(=O)c4ccccc4F)C3)nc2)c2nccnc2c1"
  UNIT OF MEASURE: "%"
  remaining activity at 10 µM: 1.08

Input `CC(C)CNc1cc(-c2ccc(N3CC[C@H](NC(=O)c4ccccc4F)C3)nc2)c2nccnc2c1` . Output remaining activity at 10 µM: 1.21

Consider `CCN1CCN(c2ccc(-c3cc(N)cc4nccnc34)cn2)CC1` . Its measured remaining activity at 10 µM is 26

Memo: `CCNc1cc(-c2ccc(N3CC(Oc4cccc(F)c4)C3)nc2)c2nccnc2c1` , reported remaining activity at 10 µM: 0.73

Reported remaining activity at 10 µM for `CCNc1cc(Nc2cc(C)[nH]n2)c2nccnc2c1` was 5.39

Form: molecule = `CC(C)CNc1cc(-c2ccc(N3CC(Oc4cccc(F)c4)C3)nc2)c2nccnc2c1` ; remaining activity at 10 µM = 0.85

What the record says about `Nc1cc(-c2ccc(N3CCOCC3)nc2)c2nccnc2c1` : remaining activity at 10 µM is 5.69

remaining activity at 10 µM recorded for this molecule, `CCCNc1cc(-c2ccc(N3CC(Oc4cccc(F)c4)C3)nc2)c2nccnc2c1` , is 1.11

remaining activity at 10 µM measured on `O=C(Nc1cc(-c2ccc(N3CC[C@H](NC(=O)c4ccccc4F)C3)nc2)c2nccnc2c1)c1ccccn1` = 1.9

Noted for `Nc1cc(-c2ccc(N3CCN(Cc4ccc(Br)cc4)CC3)nc2)c2nccnc2c1` : its remaining activity at 10 µM reads 1.51

Summary for this molecule, `CCNc1cc(-c2ccc(N3CC[C@H](NC(=O)c4ccccc4F)C3)nc2)c2nccnc2c1` : remaining activity at 10 µM is 1.25
